- Tested on: NKL (IL-2 2.5 ng/mL);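 note: normalised to DMSO-only wells as negative and benzethonium chloride as positive control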
- Assay Method Text: percent inhibition of viability; higher = more inhibition
- Study Conditions: 72 h; 100 nM
Endpoint Label: percent inhibition of viability

Molecule | Reported Value
Cc1c(C(=O)Nc2ccc(N3C[C@@H](C)O[C@@H](C)C3)nc2)cccc1-c1ccc(OC(F)(F)F)cc1 [Sonidegib] (max concentration tested 10000 nM) | -0.64%
C[C@]12C=CC(=O)C=C1CC[C@@H]1[C@@H]2C(=O)C[C@@]2(C)[C@H]1CC[C@]2(O)C(=O)CO [Prednisone] (max concentration tested 10000 nM) | -4.53%
CN[C@@H]1C[C@H]2O[C@@](C)([C@@H]1OC)n1c3ccccc3c3c4c(c5c6ccccc6n2c5c31)C(=O)N[C@H]4O [UCN-01] (max concentration tested 10000 nM) | 78.1%
Clc1ccccc1C(c1ccccc1)(c1ccccc1)n1cccn1 [TRAM-34] (max concentration tested 1000 nM) | 4.13%
CO[C@@]12[C@H](COC(N)=O)C3=C(C(=O)C(C)=C(N)C3=O)N1C[C@@H]1N[C@@H]12 [Mitomycin C] (max concentration tested 10000 nM) | 25.9%
CNC(=O)c1ccc(C)c(-n2c(C)cc(OCc3ccc(F)cc3F)c(Br)c2=O)c1 (max concentration tested 1000 nM) | 26.1%
CC(C)CC(=O)Nc1n[nH]c2c1CN(C(=O)C1CCN(C)CC1)C2(C)C (max concentration tested 10000 nM) | 8.64%
O=C(Nc1c[nH]nc1-c1nc2ccc(CN3CCOCC3)cc2[nH]1)NC1CC1 [AT9283] (max concentration tested 1000 nM) | 38.5%
Cc1cn(-c2cc(NC(=O)c3ccc(C)c(Nc4nccc(-c5cccnc5)n4)c3)cc(C(F)(F)F)c2)cn1 [Nilotinib] (max concentration tested 10000 nM) | -4.77%
Cc1cc(Nc2cc(N3CCN(C)CC3)nc(/C=C/c3ccccc3)n2)n[nH]1 [ENMD-2076] (max concentration tested 10000 nM) | 17.7%
COc1ccc(S(=O)(=O)Nc2cccnc2Nc2ccc(O)cc2)cc1 [ABT-751] (max concentration tested 10000 nM) | -13.9%
CS(=O)(=O)c1ccc(C2=C(c3ccccc3)C(=O)OC2)cc1 [Rofecoxib] (max concentration tested 10000 nM) | 8.93%
c1ccc([C@H]2CN3CCSC3=N2)cc1 [Levamisole] (max concentration tested 10000 nM) | -6.49%
COc1ccc(-c2cc3c(C)nc(N)nc3n([C@H]3CC[C@H](OCCO)CC3)c2=O)cn1 (max concentration tested 10000 nM) | 32.7%
Cc1nc(Nc2n[nH]c3c2CN(C(=O)N[C@H](CN(C)C)c2ccccc2)C3(C)C)c2sccc2n1 (max concentration tested 10000 nM) | 31.3%
S=C(NCc1ccc2c(c1)OCO2)N1CCN(c2ncnc3c2oc2ccccc23)CC1 [Amuvatinib] (max concentration tested 10000 nM) | 6.91%
COc1ccc(-c2ccc3ncc4c(c3c2)n(-c2ccc(N3CCNCC3)c(C(F)(F)F)c2)c(=O)n4C)cn1 [NVP-BGT226] (max concentration tested 1000 nM) | 51.1%

These entries and their values trace back to the supplement of paper PMC5908809.
